Origin of values: the kinase profiling compilation of Christmann-Franck et al. (2016)

This listing pairs compounds with measured residual activity.
Molecular target: BTK (human) (UniProt Q06187)
Sequence (Q06187 whole entry, looked up): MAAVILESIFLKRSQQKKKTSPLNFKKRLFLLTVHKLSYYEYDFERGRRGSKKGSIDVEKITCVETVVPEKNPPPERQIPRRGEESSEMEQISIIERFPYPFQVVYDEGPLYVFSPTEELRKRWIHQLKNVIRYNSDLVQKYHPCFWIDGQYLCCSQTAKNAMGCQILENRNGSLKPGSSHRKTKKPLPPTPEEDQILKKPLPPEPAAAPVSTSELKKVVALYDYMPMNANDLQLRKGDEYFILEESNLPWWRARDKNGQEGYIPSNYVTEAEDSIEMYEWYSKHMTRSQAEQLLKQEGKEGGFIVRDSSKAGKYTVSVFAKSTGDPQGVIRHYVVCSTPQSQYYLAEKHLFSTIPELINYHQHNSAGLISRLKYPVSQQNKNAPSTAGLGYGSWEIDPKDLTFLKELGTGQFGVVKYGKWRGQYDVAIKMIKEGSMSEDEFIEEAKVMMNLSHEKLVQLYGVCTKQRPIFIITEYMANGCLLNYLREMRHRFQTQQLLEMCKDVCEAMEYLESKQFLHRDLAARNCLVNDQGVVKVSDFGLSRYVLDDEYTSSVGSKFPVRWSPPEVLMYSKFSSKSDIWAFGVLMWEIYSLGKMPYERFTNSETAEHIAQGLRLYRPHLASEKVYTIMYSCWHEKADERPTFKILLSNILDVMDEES
Assay: radiometric filter-binding kinase assay, Kinase HotSpot
Conditions: compound 0.5 µM; ATP 10 µM
Give a bare numeral; the unit % is implied.

INSERT INTO assay_data (input_smiles, study_target, unit_spec, quantitative_readout) VALUES
  ('Oc1ccc(Nc2nc(-c3ccc(Cl)cc3)cs2)cc1', 'BTK (human) (UniProt Q06187)', '%', 107),
  ('COc1ccc(CNC(=O)Nc2ncc([N+](=O)[O-])s2)cc1', 'BTK (human) (UniProt Q06187)', '%', 102),
  ('Cn1cnc2cc3c(Nc4cccc(Br)c4)ncnc3cc21', 'BTK (human) (UniProt Q06187)', '%', 86.8),
  ('O=C1NC(=O)C(c2cn(CCCO)c3ncccc23)=C1c1cnccn1', 'BTK (human) (UniProt Q06187)', '%', 93.7),
  ('Cn1sc(=O)n(Cc2ccccc2)c1=O', 'BTK (human) (UniProt Q06187)', '%', 103);

Kindly review the next compound as well.
Input: Item `O=C1NC(=O)C(c2c[nH]c3ccccc23)=C1c1c[nH]c2ccccc12` : provide residual activity
Output: 98.2

---

This listing pairs compounds with measured residual activity.
Biological target: UniProt P53350
Sequence (P53350 whole entry, looked up): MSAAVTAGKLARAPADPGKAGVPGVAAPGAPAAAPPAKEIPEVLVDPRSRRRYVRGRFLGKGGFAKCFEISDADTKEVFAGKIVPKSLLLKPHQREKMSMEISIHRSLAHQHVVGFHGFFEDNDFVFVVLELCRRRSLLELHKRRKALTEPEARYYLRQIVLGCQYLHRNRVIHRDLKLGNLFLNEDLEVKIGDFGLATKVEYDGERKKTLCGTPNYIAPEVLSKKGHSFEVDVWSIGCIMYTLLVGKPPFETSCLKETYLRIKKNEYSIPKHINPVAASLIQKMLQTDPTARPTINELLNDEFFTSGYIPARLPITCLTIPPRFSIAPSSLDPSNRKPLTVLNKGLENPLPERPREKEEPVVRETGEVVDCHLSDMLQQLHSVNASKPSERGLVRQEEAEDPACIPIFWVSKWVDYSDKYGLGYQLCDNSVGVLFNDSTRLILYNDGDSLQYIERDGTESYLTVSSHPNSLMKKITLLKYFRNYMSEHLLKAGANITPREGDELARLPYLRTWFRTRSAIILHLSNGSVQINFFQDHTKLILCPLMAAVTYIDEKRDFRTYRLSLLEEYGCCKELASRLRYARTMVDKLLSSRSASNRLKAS
Assay: radiometric filter-binding kinase assay, Kinase HotSpot
Conditions: compound 0.5 µM; ATP 10 µM
Give a bare numeral; the unit % is implied.

Input: Item `Oc1ccc(Nc2nc(-c3ccc(Cl)cc3)cs2)cc1` : provide residual activity
Output: 106

Input: Item `CN(C)C[C@H]1CCn2c(c(C3=C(c4cn(C)c5ccccc45)C(=O)NC3=O)c3ccccc32)C1` : provide residual activity
Output: 102

Input: Item `CC(C)[C@H](CO)Nc1nc(Nc2cc(N)cc(Cl)c2)c2ncn(C(C)C)c2n1` : provide residual activity
Output: 54.9

Input: Item `O=C1NC(=O)C(c2c[nH]c3ccccc23)=C1c1c[nH]c2ccccc12` : provide residual activity
Output: 94.5

Input: Item `O=C(O)/C=C/c1cc(Br)c(Br)c(Br)c1Br` : provide residual activity
Output: 68.7

---

This listing pairs compounds with measured residual activity.
Molecular target: ALK (human)
Assay: radiometric filter-binding kinase assay, Kinase HotSpot
Details: compound 0.5 µM; ATP 10 µM
Give a bare numeral; the unit % is implied.

Examples with answers:
INSERT INTO measurements (compound, study_target, quantitative_readout) VALUES
  ('O=C(Nc1cccc(Nc2cc(Nc3cccc(C(F)(F)F)c3)ncn2)c1)C1CC1', 'ALK (human)', 112),
  ('O=C1Nc2ccccc2/C1=C1/Nc2ccccc2/C1=N\OCCC(O)CO (configuration not stated)', 'ALK (human)', 38.1),
  ('Cn1sc(=O)n(Cc2ccccc2)c1=O', 'ALK (human)', 94.1);

Input: Item `O=C1Nc2ccccc2/C1=C1\Nc2ccccc2\C1=N/O` : provide residual activity
Output: 76.5

Input: Item `Oc1ccc(Nc2nc(-c3ccc(Cl)cc3)cs2)cc1` : provide residual activity
Output: 111

Input: Item `COc1cc2ncnc(N3CCN(C(=O)Nc4ccc(Oc5ccccc5)cc4)CC3)c2cc1OC` : provide residual activity
Output: 101

---

This listing pairs molecules with measured residual activity.
Biological target: CAMK1G (human) (UniProt Q96NX5)
Sequence (Q96NX5 whole entry, looked up): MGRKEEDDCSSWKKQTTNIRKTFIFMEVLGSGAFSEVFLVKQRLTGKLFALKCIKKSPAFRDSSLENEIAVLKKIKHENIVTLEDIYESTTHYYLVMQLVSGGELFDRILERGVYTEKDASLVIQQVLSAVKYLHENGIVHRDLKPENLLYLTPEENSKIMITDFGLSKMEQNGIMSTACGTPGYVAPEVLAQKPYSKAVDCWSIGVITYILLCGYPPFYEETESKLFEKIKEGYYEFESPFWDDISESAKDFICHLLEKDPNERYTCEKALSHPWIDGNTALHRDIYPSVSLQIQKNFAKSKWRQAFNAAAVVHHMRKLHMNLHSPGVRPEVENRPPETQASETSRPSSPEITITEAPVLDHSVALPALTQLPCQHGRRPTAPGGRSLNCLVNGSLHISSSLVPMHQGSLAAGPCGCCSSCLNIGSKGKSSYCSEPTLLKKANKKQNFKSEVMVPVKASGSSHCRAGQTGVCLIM
Assay: radiometric filter-binding kinase assay, Kinase HotSpot
Conditions: compound 0.5 µM; ATP 10 µM
Give a bare numeral; the unit % is implied.

Examples with answers:
INSERT INTO results (molecule, study_target, property, unit_spec, quantitative_readout) VALUES
  ('Cc1nc2cc3nc(-c4cccs4)cnc3cc2n1C', 'CAMK1G (human) (UniProt Q96NX5)', 'residual activity', '%', 106),
  ('CCN(CC)CCCCN1c2ccccc2Oc2ccc(Cl)cc21', 'CAMK1G (human) (UniProt Q96NX5)', 'residual activity', '%', 99.2),
  ('COc1cc2ncc(-c3ccccc3)nc2cc1OC', 'CAMK1G (human) (UniProt Q96NX5)', 'residual activity', '%', 95.1);

Kindly review the next molecule as well.
Input: Item `O=C1NC(=O)/C(=C\c2ccc3nccnc3c2)S1` : provide residual activity
Output: 105

---

Molecular target: PDGFRB (human) (UniProt P09619)
Sequence (P09619 whole entry, looked up): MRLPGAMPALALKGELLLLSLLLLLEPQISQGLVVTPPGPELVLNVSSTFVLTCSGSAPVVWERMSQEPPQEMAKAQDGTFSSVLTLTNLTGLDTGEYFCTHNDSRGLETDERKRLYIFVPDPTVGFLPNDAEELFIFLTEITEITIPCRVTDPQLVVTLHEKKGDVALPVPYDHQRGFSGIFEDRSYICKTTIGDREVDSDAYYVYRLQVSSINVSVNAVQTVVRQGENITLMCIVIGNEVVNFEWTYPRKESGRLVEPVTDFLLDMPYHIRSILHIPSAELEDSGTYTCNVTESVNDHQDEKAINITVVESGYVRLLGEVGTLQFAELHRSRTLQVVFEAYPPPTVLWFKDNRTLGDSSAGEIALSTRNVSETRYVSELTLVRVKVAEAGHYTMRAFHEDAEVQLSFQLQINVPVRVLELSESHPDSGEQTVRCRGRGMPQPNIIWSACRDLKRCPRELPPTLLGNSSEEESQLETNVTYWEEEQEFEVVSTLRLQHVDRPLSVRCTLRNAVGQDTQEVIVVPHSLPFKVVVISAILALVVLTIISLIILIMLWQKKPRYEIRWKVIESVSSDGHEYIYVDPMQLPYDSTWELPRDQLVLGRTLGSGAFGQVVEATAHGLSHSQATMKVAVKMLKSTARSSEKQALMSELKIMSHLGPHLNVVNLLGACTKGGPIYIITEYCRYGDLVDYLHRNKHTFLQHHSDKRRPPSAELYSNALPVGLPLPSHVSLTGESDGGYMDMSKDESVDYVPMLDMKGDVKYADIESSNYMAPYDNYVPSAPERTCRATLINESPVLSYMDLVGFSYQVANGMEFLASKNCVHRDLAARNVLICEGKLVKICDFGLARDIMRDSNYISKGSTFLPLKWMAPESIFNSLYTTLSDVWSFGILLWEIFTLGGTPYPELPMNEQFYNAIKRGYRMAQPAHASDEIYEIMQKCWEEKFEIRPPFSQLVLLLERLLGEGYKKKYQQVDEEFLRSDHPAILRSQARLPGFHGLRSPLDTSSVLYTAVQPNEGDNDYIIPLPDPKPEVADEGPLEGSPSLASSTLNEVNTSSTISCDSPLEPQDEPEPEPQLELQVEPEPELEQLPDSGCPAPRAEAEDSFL
Test: radiometric filter-binding kinase assay, Kinase HotSpot
Settings: compound 0.5 µM; ATP 10 µM
PROPERTY: residual activity (%)
Give a bare numeral; the unit % is implied.

Examples with answers:
INSERT INTO results (molecule, quantitative_readout) VALUES
  ('Oc1ccc(Nc2nc(-c3ccc(Cl)cc3)cs2)cc1', 107),
  ('O=C1NC(=O)C(c2cn(CCCO)c3ncccc23)=C1c1cnccn1', 102),
  ('CN(C)C[C@H]1CCn2c(c(C3=C(c4cn(C)c5ccccc45)C(=O)NC3=O)c3ccccc32)C1', 102),
  ('CCn1cnc2c(Nc3cccc(Cl)c3)nc(N[C@@H]3CCCC[C@@H]3N)nc21', 99.6),
  ('COc1ccc(CNC(=O)Nc2ncc([N+](=O)[O-])s2)cc1', 125),
  ('COc1ccc(OC)c2c(=S)c3ccccc3[nH]c12', 98.1),
  ('O=C1NC(=O)C(c2c[nH]c3ccccc23)=C1c1c[nH]c2ccccc12', 95.6),
  ('O=C1Cc2c([nH]c3ccc(Br)cc23)-c2ccccc2N1', 93.2);

Input: Item `Cn1cnc2cc3c(Nc4cccc(Br)c4)ncnc3cc21` : provide residual activity
Output: 99.7

Input: Item `CCN(CC)CCCCN1c2ccccc2Oc2ccc(Cl)cc21` : provide residual activity
Output: 103

Input: Item `CC(C)[C@H](CO)Nc1nc(Nc2cc(N)cc(Cl)c2)c2ncn(C(C)C)c2n1` : provide residual activity
Output: 98.1

Input: Item `O=C1NC(=O)/C(=C\c2ccc3nccnc3c2)S1` : provide residual activity
Output: 99.5

Input: Item `O=C(CCCc1ccc(-c2ccccc2F)cc1)Nc1ccc(O)cc1` : provide residual activity
Output: 98.2

Input: Item `CN([C@@H](Cc1ccc(OS(=O)(=O)c2cccc3cnccc23)cc1)C(=O)N1CCN(c2ccccc2)CC1)S(=O)(=O)c1cccc2cnccc12` : provide residual activity
Output: 104

Input: Item `CC(C)c1nn(-c2c(Cl)cccc2Cl)c2nc(Cc3ccc(OCCO)cc3)nc(O)c12` : provide residual activity
Output: 98.9

---

This listing pairs molecules with measured residual activity.
Target: PAK2 (human) (UniProt Q13177)
Sequence (Q13177 whole entry, looked up): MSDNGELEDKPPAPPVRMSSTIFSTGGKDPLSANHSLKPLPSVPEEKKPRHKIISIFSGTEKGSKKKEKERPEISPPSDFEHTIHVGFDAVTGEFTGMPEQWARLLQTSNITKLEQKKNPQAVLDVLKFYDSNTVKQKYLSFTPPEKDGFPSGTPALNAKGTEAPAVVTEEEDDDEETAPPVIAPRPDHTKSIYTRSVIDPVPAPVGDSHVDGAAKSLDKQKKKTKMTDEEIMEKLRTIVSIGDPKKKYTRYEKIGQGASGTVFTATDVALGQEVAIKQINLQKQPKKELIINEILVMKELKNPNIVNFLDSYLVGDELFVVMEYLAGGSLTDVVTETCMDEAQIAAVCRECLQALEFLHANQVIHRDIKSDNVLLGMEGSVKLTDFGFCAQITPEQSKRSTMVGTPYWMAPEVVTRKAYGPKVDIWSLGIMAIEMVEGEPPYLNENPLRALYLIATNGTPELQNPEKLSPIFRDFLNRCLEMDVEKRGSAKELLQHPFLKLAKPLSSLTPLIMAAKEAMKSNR
Assay: radiometric filter-binding kinase assay, Kinase HotSpot
Conditions: compound 0.5 µM; ATP 10 µM
Give a bare numeral; the unit % is implied.

INSERT INTO results (molecule, unit_spec, quantitative_readout) VALUES
  ('COc1cc2ncc(-c3ccccc3)nc2cc1OC', '%', 85.6);

Input: Item `O=C1NC(=O)C(c2c[nH]c3ccccc23)=C1c1c[nH]c2ccccc12` : provide residual activity
Output: 97

Input: Item `O=C1Cc2c([nH]c3ccc(Br)cc23)-c2ccccc2N1` : provide residual activity
Output: 95.5

Input: Item `O=C1Nc2ccccc2/C1=C1\Nc2ccccc2\C1=N/O` : provide residual activity
Output: 96.7

---

Molecular target: PRKCG (human)
Experiment: radiometric filter-binding kinase assay, Kinase HotSpot
Conditions: compound 0.5 µM; ATP 10 µM
Labelling: residual activity reported below 90% becomes yes (1); at or above becomes no (0).

# example entries with known answers
INSERT INTO assay_data (input_smiles, assigned_category) VALUES
  ('Nc1nnc2[nH]c3ccccc3nc1-2', 'no (0)'),
  ('Oc1ccc(Nc2nc(-c3ccc(Cl)cc3)cs2)cc1', 'yes (1)'),
  ('O=C1Cc2c([nH]c3ccc(Br)cc23)-c2ccccc2N1', 'no (0)');

Next item in the queue.
Input: I wonder whether `Cc1nc2cc3nc(-c4cccs4)cnc3cc2n1C` has residual activity below 90%. Can you tell?
Output: no (0)

---

This listing pairs compounds with measured residual activity.
Target: CSNK1G3 (human)
Assay: radiometric filter-binding kinase assay, Kinase HotSpot
Settings: compound 0.5 µM; ATP 10 µM
Give a bare numeral; the unit % is implied.

Examples with answers:
INSERT INTO measurements (compound, quantitative_readout) VALUES
  ('Cn1nc2c3c(cccc31)C(=O)c1ccccc1-2', 81.4),
  ('Nc1nccc(-c2c(-c3ccc(F)cc3)ncn2C2CCNCC2)n1', 83.9),
  ('CN(C)C[C@H]1CCn2c(c(C3=C(c4cn(C)c5ccccc45)C(=O)NC3=O)c3ccccc32)C1', 104),
  ('CC(C)[C@H](CO)Nc1nc(Nc2cc(N)cc(Cl)c2)c2ncn(C(C)C)c2n1', 13.4),
  ('O=C1Nc2ccccc2/C1=C1\Nc2ccccc2\C1=N/O', 81.9);

Input: Enter measured residual activity, system CSNK1G3 (human), for the compound shown: `Cn1cnc2cc3c(Nc4cccc(Br)c4)ncnc3cc21`
Output: 88.1

Input: Enter measured residual activity, system CSNK1G3 (human), for the compound shown: `O=C1NC(=O)C(c2cn(CCCO)c3ncccc23)=C1c1cnccn1`
Output: 107

Input: Enter measured residual activity, system CSNK1G3 (human), for the compound shown: `O=C(O)/C=C/c1cc(Br)c(Br)c(Br)c1Br`
Output: 92.1
